target: Tubulin alpha chain (Sus scrofa)
Sequence (P02550 whole entry, looked up): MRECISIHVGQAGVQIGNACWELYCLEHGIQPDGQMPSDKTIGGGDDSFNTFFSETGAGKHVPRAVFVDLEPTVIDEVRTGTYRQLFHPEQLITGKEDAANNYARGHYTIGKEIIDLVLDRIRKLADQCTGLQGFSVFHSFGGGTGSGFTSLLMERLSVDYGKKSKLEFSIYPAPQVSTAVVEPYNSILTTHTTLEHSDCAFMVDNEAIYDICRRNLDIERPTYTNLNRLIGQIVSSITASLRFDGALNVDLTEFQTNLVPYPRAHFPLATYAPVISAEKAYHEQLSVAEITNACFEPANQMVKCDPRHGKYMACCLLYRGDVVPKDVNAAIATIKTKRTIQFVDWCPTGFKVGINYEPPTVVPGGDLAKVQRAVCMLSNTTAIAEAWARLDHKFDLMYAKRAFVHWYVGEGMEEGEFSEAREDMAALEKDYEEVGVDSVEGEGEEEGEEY
pIC50: −log10 of the molar value.
Value Type: pIC50

Use the examples below as a reference point.
>>> recorded_number("COc1cc2c(c(OC)c1OC)-c1ccc(SC)cc1[C@H](OC(=O)c1cccnc1)CC2")
5.62
>>> recorded_number("Cc1cnc2nc(-c3ccc4ccccc4c3)cc(O)c2c1")
5.68
>>> recorded_number("COC(=O)c1ccc2c(c1)C(NC(C)=O)CCc1cc(OC)c(OC)c(OC)c1-2 (stereo unspecified)")
5.85
>>> recorded_number("COc1cc2c(c(OC)c1O)-c1ccc(SC)c(=O)cc1[C@@H](NC(=O)CC(C)=O)CC2")
5.48
>>> recorded_number("COc1cc2c(c(OC)c1OC)-c1ccc(SC)c(=O)cc1[C@@H](COC(=O)c1cccc(C#N)c1)C2")
5.52

[I] COc1cccc(-c2cc(O)c3ccccc3n2)c1
[II] Cc1cc(C)c2c(O)cc(-c3cccc(F)c3)nc2n1
Prompt: Which record would sort first by descending pIC50, I or II ? Mark your selection by writing its label.
Completion: II
(II: 6.13, I: 5.85)

[A] Cc1ccc2c(O)cc(-c3cccc4ccccc34)nc2n1
[B] COc1ccc2c(c1)CCCc1cc(OC)c(OC)c(OC)c1-2
Prompt: Which record would sort first by descending pIC50, A or B ? Mark your selection by writing its label.
Completion: A

[a] COc1cccc([C@@H]2CC(=O)c3cc4c(cc3N2)OCO4)c1
[b] Cc1ccc2c(O)cc(-c3ccc(Cl)s3)nc2n1
Prompt: Which has the smaller recorded pIC50, a or b ? Mark your selection by writing its label.
Completion: b

[P] COc1cc2c(c(OC)c1OC)-c1ccc(SC)c(=O)cc1[C@@H](NCc1ccc([N+](=O)[O-])cc1)CC2
[Q] COc1cccc(-c2cc(O)c3c(C)cc(C)nc3n2)c1
Prompt: Which record would sort first by descending pIC50, P or Q ? Mark your selection by writing its label.
Completion: Q
(Q: 6.06, P: 5.64)

Source: ChEMBL document CHEMBL1133658
